Where do the numbers come from? From PubChem BioAssay (EPA / NIEHS).

Test: ATG_CMV_CIS: Attagene CIS-FACTORIAL HepG2 Assay for human CMV (Internal Marker) (AID 2282928);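 note: endpoint acts as a background internal control marker rather than a target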
Conditions: HepG2 CMV promoter reporter, transcription factor profiling; actives raise or lower the signal
Method: ATG_CIS is a cell-based, multiplexed-readout assay that uses HepG2, a human liver cell line, with measurements taken at 24 hours after chemical dosing in a 24-well plate.ATG_CMV_CIS is one of 52 assay component(s) measured or calculated from the ATG_CIS assay. […] This assay endpoint, ATG_CMV_CIS, was analyzed with bidirectional fitting relative to DMSO as the negative control and baseline of activity. […]
Calls of active or inactive are those of the source. Rule for the calls: active = hit-call score of the fitted dose curve at least 0.9, where 1 is the maximum; inactive = score below 0.9.
Answer with one of the outcomes true (1) for active, false (0) for inactive

Please review the following examples before continuing.
• O=S(=O)(O)O = false (0)
• [Cl][Sb]([Cl])[Cl] = false (0)
• C[C@]12CC[C@H]3[C@@H](CC[C@@]45O[C@@H]4C(O)=C(C#N)C[C@]35C)[C@@H]1CC[C@@H]2O = true (1)

Input line: Record lookup: outcome of this test for CN1C(=O)CCS(=O)(=O)C1c1ccc(Cl)cc1 (configuration not stated) ?
Output line: false (0)

Input line: Record lookup: outcome of this test for Nc1c(Cl)c(Cl)c(Cl)c(Cl)c1Cl ?
Output line: true (1)

Input line: Record lookup: outcome of this test for Nc1ccccc1C(=O)OCCc1ccccc1 ?
Output line: false (0)
